Flag rule - logP less than 0.3 flags t; the remaining entries get f.

> print(dat)
                            cpd.smiles  label.value
1                          CCN1CCCC1=O            t
2  O=C(OCn1ncc2c(=O)[nH]cnc21)c1ccccc1            f
3                            CCCCCCCCC            f
4                             CCCCCCCC            f
5              O=[N+]([O-])c1nc[nH]c1I            t
6                   CCn1ccc(=O)c(O)c1C            t

Shift focus to the following entry.
Strictly below 0.3 in logP? O=[N+]([O-])c1ccc(Cl)cc1Cl f

* * *

MEASURE: logP
One number for each entry.

Recorded logP, per entry:
> print(dat)
                                   compound  obs.value
1          Cc1cccc(O[Si]23OCCN(CCO2)CCO3)c1       0.15
2  C[Si]1(C)O[Si](C)(C)O[Si](C)(C)O[Si](C)(C)O[Si](C)(C)O1       8.03
3  CCCCC(OC(Cc1ccccc1)C(=O)N1CCC(OCOC)CC1)C(=O)NC(CC1CCCCC1)C(O)CC(C(=O)NCCNc1noc(N)n1)C(C)C (stereo not drawn)        4.5
4         CC(=O)Oc1cc(C(C)C)c(OCCN(C)C)cc1C       3.17
5                           CN(C)CCc1ccccn1       1.12
6              CN(CCO)C(=O)COC(=O)c1ccccc1O       0.86
7                  CCN(CC)P(=O)(N(C)C)N(C)C       0.66
8  COC(=O)c1ccsc1S(=O)(=O)NC(=O)Nc1nc(OC)nc(OC)n1        1.3

Kindly give each listed record's logP.
1. CC(=O)N(C)S(=O)(=O)c1ccc(C)cc1
2. CC(=O)N[C@@H](Cc1ccccc1)C(=O)O
3. CCCCc1ccc(N)cc1
4. CC1CCC(=O)N1 (stereo not drawn)

1. 1.73
2. 0.93
3. 3.05
4. -0.1

Would you kindly share the measured logP for CCCCCCc1ccc(N)cc1 ? 4.21

* * *

Each record is given Satisfied if its reported logP is strictly below 2. Records at or above 2 are given Not satisfied.

Could you please tell me whether logP recorded for N[C@@H](Cc1ccc(O)c(O)c1)C(=O)OCCc1ccccc1 is less than 2? Satisfied

And what about the molecule CCc1c(O)c(=O)ccn1C ? Satisfied

And what about the molecule CN(C)C(=S)N(C)C ? Satisfied

What do you get for N#Cc1c(Cl)c(Cl)c(Cl)c(C#N)c1Cl ? Not satisfied

Same thing, different molecule: Cc1nc(N)c2ncn([C@@H]3O[C@H](CO)C[C@@H]3F)c2n1 Satisfied

* * *

MEASURE: logP

Reference set (5 entries):
> print(dat)
                                   compound  obs.value
1                    OCCN1CC=C(c2ccccc2)CC1          2
2  CCCCC(=O)OCC1OC(n2cnc3c(OC)ncnc32)C(OC(=O)CCCC)C1O (stereo not given)       3.58
3        CC(C)(C)C1=CC(=O)C=C(C(C)(C)C)C1=O       4.42
4                             CCCCN(CCC)N=O       2.09
5                             CCCCCCOCCOCCO        1.7

For every item below, please supply its logP.
1. CNC[C@H](O)c1ccc(O)c(O)c1
2. CC(=O)Nc1ccc2c(c1)Cc1cc([N+](=O)[O-])ccc1-2
3. CC(=O)OC1C=CC2C3Cc4ccc(O)c5c4C2(CCN3C)C1O5 (stereo not given)
4. OCCC(F)(F)C(F)(F)C(F)(F)C(F)(F)F
5. O=c1[nH]c(=O)n([C@H]2C[C@H](O)[C@@H](CO)O2)cc1I

1. -1.2
2. 3.08
3. 1.55
4. 3.3
5. -0.96

* * *

Would you kindly list solubility for each of these compounds?
Conditions: 20 °C
Answers are plain numbers, in mM.

> print(dat)
                                 compound     measure  unit.label  obs.value
1  CC(C)(C)C1CCC(O)CC1 (stereo not drawn)  solubility          mM       0.64
2                              N#CCCCCC#N  solubility          mM        740
3                             CS(=O)(=O)F  solubility          mM        306

Provide the reported solubility of each entry below, same order.
1. ClCC(Br)CBr (stereo not drawn)
2. N=C(N)N
3. C=C(C)[C@H]1Cc2c(ccc3c2O[C@@H]2COc4cc(OC)c(OC)cc4[C@@H]2C3=O)O1
4. COCCO[Si](CCCl)(OCCOC)OCCOC
5. C=CC(=O)NCO
6. CNC(=N)N
7. CCc1cccc(C)c1N(C(=O)CCl)C(C)COC (stereo not drawn)
8. COP(=S)(OC)Oc1nc(Cl)c(Cl)cc1Cl

[4.69, 31.1, 0.000507, 78.9, 6460, 24.4, 1.87, 0.0148]

I need solubility for every entry listed below, if you could help.
1. CCCC(CCC)C(=O)O
2. C=COCC(C)C
3. O=C(O)c1ccccn1

[13.9, 30, 7800]

* * *

Exercise: for every item that follows, state its recorded logP.
Numbers only.

Solved entries:
> print(dat)
                   compound  obs.value
1  Cc1cccc([N+](=O)[O-])c1C       2.83
2        O=C(O)CNCP(=O)(O)O       -3.4

Look up logP for the entries below, preserving their order.
1. NC(=O)c1cccc2ccccc12
2. Cc1nc(NCC(C)O)c(C#N)cc1-c1ccccc1 (stereo not drawn)
3. NS(=O)(=O)c1nn2c(=Nc3ccc(F)cc3)snc2s1
4. O=C1c2cc([N+](=O)[O-])ccc2-c2ccc([N+](=O)[O-])cc21
5. COc1ccc(C#N)cc1

1.88
2.72
2.81
2.84
1.7

Kindly give each listed record's logP.
1. O=[N+]([O-])c1ccc2c(c1)CCN2
2. COC(=O)C1CC(=O)N(C)C1 (stereo not drawn)
3. CC1=CC(=O)C(C)=C(C)C1=O
4. CCC(O)(C(=O)O)c1ccc(CC(C)C)cc1 (stereo not drawn)

2.07
-0.74
1.82
3.37

Please give logP for each item listed below.
1. Oc1cccc2ncccc12
2. O=C1c2ccccc2C(=O)c2c(O)cccc21

1. 1.85
2. 3.52

* * *

Can you tell me solubility for the items I'm about to list?
Give bare numbers, in mM.

Solved cases below.
> print(dat)
                         cpd.smiles  obs.value
1         CCOP(=S)(OCC)Oc1ccc(N)cc1       1.49
2  CCOP(=S)(OCC)Oc1cc(C)nc(C(C)C)n1      0.131
3             Cc1ccc(S(=O)(=O)O)cc1       3600

Let's switch to this compound now.
What does the data say about its solubility? Entry: O=[N+]([O-])c1cccc(O)c1 97.1

* * *

Lab note: compare logP against 1. Equal or greater, write t. Smaller, write f.

> print(dat)
                                   molecule  label.value
1    NS(=O)(=O)c1nn2c(=Nc3ccc(Cl)cc3)snc2s1            t
2                CCOC(=O)OCn1ncc2c(O)ncnc21            f
3                   CN1CC=C(c2ccc(N)cc2)CC1            t
4                     Nc1ccc(S(=O)(=O)O)cc1            f
5  CC(CCC(=O)NCC(=O)O)C1CCC2C3CC(O)C4CC(O)CCC4(C)C3CCC12C (stereo not drawn)            t

Moving on to the next molecule.
Say whether Nc1nc(=O)n([C@@H]2CS[C@H](CO)O2)cc1F shows logP of 1 or more. f

* * *

Settings: 20 °C
MEASURE: solubility

Here are 8 compounds. What values of solubility were reported for them?
1. CCOC(=O)C(O)(c1ccc(Cl)cc1)c1ccc(Cl)cc1
2. CC(C)COC(=O)C(C)C
3. CCNc1nc(NCC)nc(OC)n1
4. COCc1cnc(C2=NC(C)(C(C)C)C(=O)N2)c(C(=O)O)c1 (centres undefined)
5. CCCC(C)C(=O)O (centres undefined)
6. CCC(CC)C(=O)O
7. C=CCOC(C)=O
8. CCC(=O)c1ccccc1

1: 0.0351 mM; 2: 5.24 mM; 3: 16.2 mM; 4: 14.5 mM; 5: 129 mM; 6: 155 mM; 7: 280 mM; 8: 14.9 mM

Give me solubility for each of these compounds, listed below.
1. CCOC(C)(C)CC
2. NC(=O)c1ccccc1C(N)=O

1: 3.44 mM; 2: 3.66 mM

Could you report solubility for every entry in the following list?
1. Clc1cccc2c1Oc1c(Cl)c(Cl)c(Cl)c(Cl)c1O2
2. COP(=O)(OC)OC(=CCl)c1cc(Cl)c(Cl)cc1Cl
3. Nc1ccc(Cl)c(Cl)c1
4. CCN(C)N=O

3.37e-07 mM
0.0301 mM
0.568 mM
3400 mM

// batch mode: one solubility value per listed entry
1. Oc1cc(O)c2ccccc2c1
2. ClC(Br)Br
3. CCSCC
4. CN(C)C(=N)N
5. COc1c(Cl)cc(Cl)cc1Cl
6. CCOP(=S)(OCC)Oc1nc(Cl)n(C(C)C)n1
7. CC(C)OC(=O)c1cc(-c2nn(C)c(C(F)(F)F)c2Br)c(F)cc1Cl

1: 11.2 mM; 2: 12.5 mM; 3: 34.7 mM; 4: 18.6 mM; 5: 0.0473 mM; 6: 0.324 mM; 7: 0.000119 mM

Source of measurements: the OPERA property sets (Mansouri et al. 2018)
